Each entry below carries its reported Fluorescence Quantum Efficiency.
assay: Fluorescence emission maximum and fluorescence quantum efficiency of the dyes; assay type: physicochemical; settings: solvent in 5:1 water/methanol
PROPERTY_NAME: Fluorescence Quantum Efficiency

- COMPOUND_STRUCTURE: "Cc1cc(OC(=O)N(C)c2ccccc2)c(Cl)c2c1cc1c3c(cccc32)C(=O)C=C1"
  VALUE_REPORTED: 0.01
- COMPOUND_STRUCTURE: "CCCCOC(=O)c1cc(O)cc2c1cc1c3c(cccc32)C(=O)C=C1"
  VALUE_REPORTED: 0.3
- COMPOUND_STRUCTURE: "CCCCOC(=O)c1cc(O)c(Cl)c2c1cc1c3c(cccc32)C(=O)C=C1"
  VALUE_REPORTED: 0.56
- COMPOUND_STRUCTURE: "Cc1cc(O)cc2c1cc1c3c(cccc32)C(=O)C=C1"
  VALUE_REPORTED: 0.18
- COMPOUND_STRUCTURE: "Cc1cc(O)c(Cl)c2c1cc1c3c(cccc32)C(=O)C=C1"
  VALUE_REPORTED: 0.42

====

experiment: Fluorescence emission maximum and fluorescence quantum efficiency of the dyes; type: physicochemical; conditions: in 5:1 water/methanol
PROPERTY_NAME: Emission (λmax) (nm)

- COMPOUND_STRUCTURE: "Cc1cc(OC(=O)N(C)c2ccccc2)c(Cl)c2c1cc1c3c(cccc32)C(=O)C=C1"
  PROPERTY_NAME: "Emission (λmax)"
  RESULT_UNIT: "nm"
  VALUE_REPORTED: 550
- COMPOUND_STRUCTURE: "Cc1cc(O)cc2c1cc1c3c(cccc32)C(=O)C=C1"
  PROPERTY_NAME: "Emission (λmax)"
  RESULT_UNIT: "nm"
  VALUE_REPORTED: 635
- COMPOUND_STRUCTURE: "CCCCOC(=O)c1cc(O)cc2c1cc1c3c(cccc32)C(=O)C=C1"
  PROPERTY_NAME: "Emission (λmax)"
  RESULT_UNIT: "nm"
  VALUE_REPORTED: 630
- COMPOUND_STRUCTURE: "CCCCOC(=O)c1cc(O)c(Cl)c2c1cc1c3c(cccc32)C(=O)C=C1"
  PROPERTY_NAME: "Emission (λmax)"
  RESULT_UNIT: "nm"
  VALUE_REPORTED: 625
- COMPOUND_STRUCTURE: "Cc1cc(O)c(Cl)c2c1cc1c3c(cccc32)C(=O)C=C1"
  PROPERTY_NAME: "Emission (λmax)"
  RESULT_UNIT: "nm"
  VALUE_REPORTED: 628

====

test: Fluorescence emission maximum and fluorescence quantum efficiency of the dyes; type: physicochemical; conditions: in methanol
The entries below are paired with their reported Emission (λmax).
PROPERTY_NAME: Emission (λmax)

- COMPOUND_STRUCTURE: "Cc1cc(O)c(Cl)c2c1cc1c3c(cccc32)C(=O)C=C1"
  VALUE_REPORTED: "629 nm"
- COMPOUND_STRUCTURE: "CCCCOC(=O)c1cc(O)cc2c1cc1c3c(cccc32)C(=O)C=C1"
  VALUE_REPORTED: "525 nm"
- COMPOUND_STRUCTURE: "Cc1cc(O)cc2c1cc1c3c(cccc32)C(=O)C=C1"
  VALUE_REPORTED: "542 nm"
- COMPOUND_STRUCTURE: "Cc1cc(N2CCCC2)cc2c1cc1c3c(cccc32)C(=O)C=C1"
  VALUE_REPORTED: "655 nm"

====

test: Fluorescence emission maximum and fluorescence quantum efficiency of the dyes; type: physicochemical; conditions: in methanol
PROPERTY_NAME: Fluorescence Quantum Efficiency

- COMPOUND_STRUCTURE: "Cc1cc(O)c(Cl)c2c1cc1c3c(cccc32)C(=O)C=C1"
  VALUE_REPORTED: 0.55
- COMPOUND_STRUCTURE: "CCCCOC(=O)c1cc(O)cc2c1cc1c3c(cccc32)C(=O)C=C1"
  VALUE_REPORTED: 0.4
- COMPOUND_STRUCTURE: "Cc1cc(N2CCCC2)cc2c1cc1c3c(cccc32)C(=O)C=C1"
  VALUE_REPORTED: 0.52
- COMPOUND_STRUCTURE: "Cc1cc(O)cc2c1cc1c3c(cccc32)C(=O)C=C1"
  VALUE_REPORTED: 0.4

Entry source: patent US4812393A
